Recorded values, source PubChem BioAssay AID1159580.

Below: a set of entries, each annotated with reported normalized growth.
TEST_NAME: chemical genetic growth profiling, strain panel (AID 1159580);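 note: tested at 20 µM; growth read once vehicle control cultures reached saturation at 30 °C; 1 = growth at the plate median or of vehicle wells; lower values mean less growth of the strain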
CONDITIONS_USED: S. cerevisiae deletion strains, growth OD, locus YJL154C, strain vps35, hits give low values
The campaign covered roughly 5,500 compounds. About 2,000 (36%) were called active. Inconclusive results (about 18%) are left out. The list shows a part of the results.

MOLECULE	normalized growth
CNCCC=C1c2ccccc2CCc2ccccc21	0.973 (inactive)
CC1(C)O[C@@H]2CC3C4C[C@H](F)C5=CC(=O)C=C[C@]5(C)[C@@]4(F)[C@@H](O)C[C@]3(C)[C@]2(C(=O)CO)O1 (stereo partly specified)	1.01 (inactive)
CCCCOc1cc(CC2CNC(=O)N2)ccc1OC (stereo unspecified)	0.993 (inactive)
N[C@H](CO)Cc1ccccc1	1.02 (inactive)
CN(C)CCC=C1c2ccccc2CCc2ccccc21	0.975 (inactive)
Nc1nnc(-c2cccc(Cl)c2Cl)c(N)n1	1.02 (inactive)
